test system: EKVX; assay: NCI tumour cell line growth inhibition, 48 h
Active and inactive are the calls of the source. No stated cut-off is given here; in the data, active = GI50 up to about 1.1 µM and inactive = higher.
Field 'call' accepts YES (active), NO (inactive)

Below, 5 compounds whose answers are already recorded.
COC(=O)/C([Se]c1c(C)cc(C)cc1C)=C(\[Se]c1c(C)cc(C)cc1C)C(=O)OC | NO
COC(=O)c1ccccc1C1CN=NC12Cc1cc(C)c(C)cc1C2=O (configuration not stated) | NO
COC(CC1(/C=C/O[Si](C(C)C)(C(C)C)C(C)C)C(=O)N(C)c2ccccc21)OC (configuration not stated) | NO
Cc1c(N2C(=O)C(Cl)C2c2ccc(Cl)cc2)c(=O)n(-c2ccccc2)n1C (configuration not stated) | NO
CCOc1cc2ccc3c4cc(OC)c(OC)cc4cnc3c2cc1OCC | NO

Q: Per the records of this test, what outcome belongs to COc1ccc(CC2C3=C(CCN2C(=O)C2CCC2)CC2(CC3)OCCO2)cc1O (configuration not stated) ?
A: NO

Q: For "Nc1nc(Nc2cc(F)c(Cl)c(F)c2)cc(=O)[nH]1" , what call appears in the results of this test?
A: NO

Q: So what was the verdict on "O=C(O)/C(=C\c1ccncc1)c1cccc2ccccc12" in this test?
A: NO

Q: In this assay, the call recorded for CC(=O)OC1CCC2OOC1O2 (configuration not stated) was what?
A: NO

Q: Hello, I am checking results. What call was entered for "O=c1c2ccccc2[nH]n1Cc1ccccc1" ?
A: NO

Q: Fill in: this test's call for "Nn1c(=O)[nH]c2ncn(Cc3ccccc3)c2c1=O" is ___
A: NO

Q: Test call, this compound: CC1=NN(c2cccc(Cl)c2)C2(SCC(=O)N2c2nc3ccccc3s2)/C1=C\c1ccccc1O (configuration not stated)
A: NO

Q: So what was the verdict on "O=C(O)c1ccc(NNc2cc(=O)[nH]c(=O)[nH]2)cc1" in this test?
A: NO

Q: Short answer needed: outcome of this test for "Clc1cc(C(c2cc(Cl)sc2Cl)c2cc(Cl)sc2Cl)c(Cl)s1" ?
A: NO

Q: What was the test verdict on "C[N+](C)([O-])Cc1cc(-c2ccccc2)ccc1O" ?
A: NO

Q: Short answer needed: outcome of this test for "Cc1cc(C)nc(NS(=O)(=O)c2ccc(Nc3nnc(/C=C/c4c(O)ccc5ccccc45)c(=O)n3N)cc2)n1" ?
A: NO

Q: Returns: the outcome recorded for "Cc1nc2[nH]ncn2c(=O)c1CCO" in this assay.
A: NO
